molecular target: pooled human IgG (human IgG1,2,3 and 4)
Flag rule - Enzyme Activity Endpoint Assay (purified): IgG less than 30 ng/µL flags yes (1); the remaining entries get no (0).

Worked examples follow.
PRT-667 (protein) MQITSVWTKGVTPLTPEQFRYNNEDVFHAPYLAHQGWYDITKAFNGKDNLLCGAATAGNMLHWWFDQNKEEIEAYLKKHPEKQKIIFNNQELFDLRKAINTKDSQTNSQLFNYFRDKAFPNLSARQLGVMPDLVLDMFINGYYLNLNKTQSTDVNRPYQDKDKRGGIFDHVFTRGDQTTLLTARHDLKNKTLNDISQLIKQELQEGKALALSHTYANVSISHVINLWGADFNAEGNLEAIYVTDSDSDASIGMKKYFVGKNASGHVAISAKKIEGENIGAQVLGLFTLSSGKEIWQKLSLEHHHHHH    no (0)
PRT-353 (protein) MSQTEDSESLQRLRDIEDFQAEKEMQNVVYTKWLDGVDVKDHDFRKIVDGNSAYYATPLLNGRGWYDINKDFNRDSDKCAAAVAANMFHYWLDINRDNVDRFLRQNPEKHGIIELPDGQLKLSDFLNTYESDHGYRDKSKLFDFISENFNGPVWTDKLLDNYINGYAYNSKYGRTIEDPTKNTSKINFFKEVFNEKILTNNHSIRNQNEFSVLLIEALYTGKAIGLSYGPAGLRHGLGHIISVWGADLDADGNVVAIYVTDSDDKKLTIGDERVGLKRYKISTDDENRLRLTAYEETHNTGGQVRGLWTLDTGKYAWADYFDKTEQTGTDQAEQ    no (0)
PRT-521 (protein) MVTSVWTKGVTPPADFTQGEDVFHAPYVANQGWYDITKTFNGKDNLLCGAATAGNMLHWWFDQNKEYIEAYLKKHPEKQKIIFNNQELFDLKAAINTKGSQKNSELFNYFRDKAFPNLSARRLGVFPDLVLDMFINGYYLNVTKTQTTDVNRTYQEKDKRGGIFDAVFTRGVQSKLLTSRHDLKNKGLKEISDLIKQELTEGKALGLSHTYANVRINHVINLWGADFDSDGNLKAIYVTDSDTNASIGMKKYFVGVNSAGKVAISAKEIKEDNIGAQVLGLFTLSTGQDIWNQTNLEHHHHHH    yes (1)
PRT-507 (protein) MITSVWTKGVTPPTDFIKGEDVFHAPYKAGQGWYDITKAFDGGDDLLCGAATAGNMLHWWFDQNKEEIEAYLKKHPEKQKIMFGDQELLDVRKVINTKDSQTNSALFNYFKDKAFPNLSARRLGVMPDLVLDMFINGYYLNVYKTQTTDVNRTYQTKDRRGGIFDAVFTRGDQSKLLTERHDFKEKTLKEISDLIKQELTEGKALGLSHTYANVRINHVINLWGADFDSNGNLEAIYVTDSDSNASIGMKKYFVGVNSAGKVAISAKEIKEDNIGAQVLGLFTLSTGQDIWNQTNLEHHHHHH    no (0)
PRT-319 (protein) MTITSVWTKGVTPPTPEDFRENNEDVLHAPYVANQGWYDITKTFDGKDNLLCGAATAGNMLHWWFDQNKEEIERYLKKHPEKQKIIFNNQELFDVKAAIDTKDSQTNSKLFDYFRDKAFPNLSARQLGVMPDLVLDMFINGYYLNLGKTQSTDVNRPYQDKDKRGGIFDAVFTRGDQTTLLTARHDLKNKGLNEISDLIKQELTEGKALALSHTYANVRINHVINLWGADFDAEGNLIAIYVTDSDANASIGMKKYFVGRNANGKVAISAKKIEGDNIGAQVLGLFTLSLGQDIWQKLS    no (0)

Query block: is_below(Enzyme Activity Endpoint Assay (purified): IgG, 30 ng/µL) for PRT-333 (protein) MTITSVWTKGVTPPTPEDFRENNEDVLHAPYVANQGWYDITKTFDGKDNLLCGAATAGNMLHWWFDQNKEEIERYLKKHPEKQKIIFGNQELFDVKAAIDTKDSQTNSKLFNYFRDKAFPGLSARQLGVFPDLVLDMFINGYYLNLGKTQSTDVNRPYQDKDKRGGIFDAVFTRGVQTTLLTARHDLKNKGLNEISDLIKQELTEGKALALSHTYANVRINHVINLWGADFDAEGNLIAIYVTDSDANPSIGMKKYFVGRNANGKVAISAKKIEGDNIGAQVLGLFTLSTGQDIWQKLS ?
Result block: yes (1)

Query block: is_below(Enzyme Activity Endpoint Assay (purified): IgG, 30 ng/µL) for PRT-325 (protein) MTITSVWTKGVTPPTPEDFRENNEDVLHAPYVANQGWYDITKTFDGKDNLLCGAATAGNMLHWWFDQNKEEIERYLKKHPEKQKIIFGNQELFDVKAAIDTKDSQTNSKLFDYFRDKAFPNLSARQLGVMPDLVLDMFINGYYLNLGKTQSTDVNRPYQDKDKRGGIFDAVFTRGDQTTLLTARHDLKNKGLNEISDLIKQELTEGKALALSHTYANVRINHVINLWGADFDAEGELIAIYVTDSDANPSIGMKKYFVGRNANGKVAISAKKIEGDNIGAQVLGLFTLSTGQDIWQKLS ?
Result block: no (0)

Query block: is_below(Enzyme Activity Endpoint Assay (purified): IgG, 30 ng/µL) for PRT-348 (protein) MSQTEDSESLQRLRDIEDFQAEKKDQNVVYTKWLDGVDVKDHDFRKIVDGNIAYYATPLLNGRGWYDINKDFNRDSDKCAAAVAANMFHYWLDINRDNVDRFLRQNPEKHGIIELPDGQLKLSDFLNTYESDHGYRDKSKLFDFISENFNGPVWTDKLLDNYINGYAYNYKYGRTIEDPTKNTSKINFFKEVFNEKILTNNHSIRNQNEFSVLLIEALYTGKAIGLSYGPAGLRHSLGHIISVWGADLDADGNVVAIYVTDSDDKKLTIGDERVGLKRYKISTDDENRLRLTAYEETHNTGGQVRGLWTLDTGKYAWADYFDKTEQTGTDQAEQ ?
Result block: yes (1)
